TARGET: NR2F6 (Homo sapiens)
Construct: expressed in transfected cells; also transient transfection
Sequence (P10588 1-404): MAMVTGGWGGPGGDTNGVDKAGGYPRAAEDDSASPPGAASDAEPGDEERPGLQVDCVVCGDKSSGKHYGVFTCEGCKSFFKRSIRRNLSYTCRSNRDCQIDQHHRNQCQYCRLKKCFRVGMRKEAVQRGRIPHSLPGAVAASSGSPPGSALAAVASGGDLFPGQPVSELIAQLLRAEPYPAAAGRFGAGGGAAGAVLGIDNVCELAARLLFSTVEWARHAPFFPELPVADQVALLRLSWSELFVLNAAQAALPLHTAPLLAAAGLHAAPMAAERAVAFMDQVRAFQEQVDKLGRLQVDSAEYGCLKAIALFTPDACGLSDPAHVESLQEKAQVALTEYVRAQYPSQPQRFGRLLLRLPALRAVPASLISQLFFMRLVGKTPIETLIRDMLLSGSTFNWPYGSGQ
ASSAY OVERVIEW: NR2F6 agonist screening, Firefly signal cmpd/DMSO
Format: cell-based
CONDITION: 40 uM
So I've got a bunch of compounds here, and I need their Firefly F4, cmpd/DMSO (mean) values.
Respond using a number only.

I would be grateful if you could share the reported Firefly F4, cmpd/DMSO (mean) for O=S1(=O)C[C@H](NCCCc2ccccc2)[C@@H](S(=O)(=O)c2ccc(Cl)cc2)C1 .
0.6

Another: COCCN[C@H]1CS(=O)(=O)C[C@@H]1S(=O)(=O)c1ccc(Cl)cc1
5.2

Another: O=S1(=O)C[C@H](N2CCCC2)[C@@H](S(=O)(=O)c2cccs2)C1
1.0

Again, but for CC(C)CCN[C@H]1CS(=O)(=O)C[C@@H]1S(=O)(=O)c1ccc(Cl)cc1
0.9

And what about the compound O=S1(=O)C[C@H](NCC2CCCO2)[C@@H](S(=O)(=O)c2cccs2)C1 (stereo partly shown) ?
2.8

Repeat for the following compound: CC(C)OCCCN[C@H]1CS(=O)(=O)C[C@@H]1S(=O)(=O)c1ccc(Cl)cc1
1.7

Same read-out for O=S1(=O)C[C@H](NCc2ccco2)[C@@H](S(=O)(=O)c2cccs2)C1 ?
2.8

----------
TARGET: NR2F6 (Homo sapiens)
Construct: expressed in transfected cells; also transient transfection
Sequence (P10588 1-404): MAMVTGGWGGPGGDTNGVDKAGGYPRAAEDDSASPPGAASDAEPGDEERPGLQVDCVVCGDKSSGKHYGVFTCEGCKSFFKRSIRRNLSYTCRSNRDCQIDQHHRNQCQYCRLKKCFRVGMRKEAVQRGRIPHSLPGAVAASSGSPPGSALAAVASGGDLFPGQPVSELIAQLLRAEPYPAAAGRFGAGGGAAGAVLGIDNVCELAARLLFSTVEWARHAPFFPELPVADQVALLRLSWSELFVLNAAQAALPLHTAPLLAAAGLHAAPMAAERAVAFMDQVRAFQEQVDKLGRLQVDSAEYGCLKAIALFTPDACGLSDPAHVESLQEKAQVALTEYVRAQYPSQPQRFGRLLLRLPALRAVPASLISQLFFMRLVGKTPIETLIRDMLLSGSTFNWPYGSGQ
ASSAY OVERVIEW: NR2F6 agonist screening, Firefly signal cmpd/DMSO
Assay type: cell-based
CONDITION: F4; 10% FBS; 0.5 uM
QUANTITY MEASURED: Firefly, F4, 10% FBS, cmpd/DMSO (mean)
The answer should be a number; do not append a unit.

Requested field: Firefly, F4, 10% FBS, cmpd/DMSO (mean). Item: COCCN[C@H]1CS(=O)(=O)C[C@@H]1S(=O)(=O)c1cccs1 [Compound D107]
0.8

What about this molecule? O=S1(=O)C[C@H](NC2CCCC2)[C@@H](S(=O)(=O)c2ccc(F)cc2)C1 [Compound D114]
1.2

Param item: O=S1(=O)C[C@H](N2CCCCC2)[C@@H](S(=O)(=O)c2ccc(Cl)cc2)C1 [Compound D123]
1.1

Also check CC(C)CCN[C@H]1CS(=O)(=O)C[C@@H]1S(=O)(=O)c1cccs1 [Compound D110]
1.3

Again, but for O=S1(=O)C[C@H](N2CCCCC2)[C@@H](S(=O)(=O)c2cccs2)C1 [Compound D105]
1.0

Try the molecule O=S1(=O)C[C@H](NCc2ccncc2)[C@@H](S(=O)(=O)c2cccs2)C1 [Compound D108]
1.2

Continue with CC(C)OCCCN[C@H]1CS(=O)(=O)C[C@@H]1S(=O)(=O)c1ccc(Cl)cc1 [Compound D138]
1.8

Now give it for C[C@@H]1C[C@H](C)CN([C@H]2CS(=O)(=O)C[C@@H]2S(=O)(=O)c2cccs2)C1 [Compound D109] too.
1.3
